Origin of values: paper PMC9227536

assay: Metabolic stability in liver microsomes, mouse; assay type: in vitro ADME; conditions: mouse, pH 7.4; mice liver microsomes 0.5 mg/mL, 1 μM; read-out: CLint,mic

# MOLECULE, microsomal CLint at 1 μM
records = [
    ("CC(C)(C)[C@H](NC(=O)[C@H](CC1CCCC1)CN(O)C=O)C(=O)N1CCC(NCc2cc(F)c(F)cc2F)CC1 [IDP-73152]", "80.1 µL/min/mg"),
]

====

Assay: Tissue distribution at steady state, constant-rate infusion in rats
Assay type: in vivo
Details: male, Sprague Dawley, rat, plasma, intravenous infusion 0.8 mg/h for 10 h, from CLp, read-out: expected steady-state concentration
Procedure: In this study, the extent of tissue distribution of IDP-73152 was also determined in rats. […] The tissue-to-plasma concentration ratio at steady state (KP,ss) was then calculated for each tissue using the following equation [23, 24, 25]:(8) KP,ss=Ctissue,ss/Cplasma,ss, where Ctissue,ss and Cplasma,ss represent the concentration of the compound in the tissue and plasma at steady-state. […]
QUANTITY NAME: concentration at 10 h

# COMPOUND, RECORDED RESULT
records = [
    ("CC(C)(C)[C@H](NC(=O)[C@H](CC1CCCC1)CN(O)C=O)C(=O)N1CCC(NCc2cc(F)c(F)cc2F)CC1 [IDP-73152]", "2120 ng/mL"),
]

====

test: Blood partitioning (LC-MS/MS-based depletion method), human; type: in vitro ADME; conditions: whole blood, humans blood, 0.3, 1, 3 μM, read-out: BP (blood-to-plasma concentration ratio)

# COMPOUND, blood plasma ratio at 60 min
records = [
    ("CC(C)(C)[C@H](NC(=O)[C@H](CC1CCCC1)CN(O)C=O)C(=O)N1CCC(NCc2cc(F)c(F)cc2F)CC1 [IDP-73152]", 1.24),
]

====

Assay: PK study in mice (intravenous and oral)
Format: in vivo, male ICR mice
Details: male, ICR, mouse, plasma, oral 20 mg/kg
Description: The in vivo experimental protocol was approved by the Institutional Animal Care and Use Committee of Research Laboratory at Ildong pharmaceutical Co., Ltd. (Ref. No.: IDL-PDF-001 and 09005-11004). Animals were acclimatized to the laboratory conditions for at least 1 week before the experiments and were kept in the standardized conditions (20–25 °C, 55 ± 5% humidity, and a 12 h light/dark cycle). The animals fasted overnight prior to drug administration, and food was resupplied 4 h post-dose. […]
QUANTITY NAME: Cmax (ng/mL)

# MOLECULE, QUANTITY NAME, RECORDED RESULT
data = [
    ("CC(C)(C)[C@H](NC(=O)[C@H](CC1CCCC1)CN(O)C=O)C(=O)N1CCC(NCc2cc(F)c(F)cc2F)CC1 [IDP-73152]", "Cmax", 3100),
]

====

assay: PK study in dogs (intravenous and oral); assay type: in vivo; settings: male, beagle, dog, plasma; dogs, intravenous 10 mg/kg; read-out: t1/2 (converted)

# COMPOUND, half-life
rows = [
    ("CC(C)(C)[C@H](NC(=O)[C@H](CC1CCCC1)CN(O)C=O)C(=O)N1CCC(NCc2cc(F)c(F)cc2F)CC1 [IDP-73152]", "1.18 h"),
]

====

assay: in vitro; assay type: in vitro ADME; details: human, microsomes
QUANTITY NAME: fraction unbound at 5 h

# MOLECULAR STRING, QUANTITY NAME, RECORDED RESULT
measured = [
    ("CC(C)(C)[C@H](NC(=O)[C@H](CC1CCCC1)CN(O)C=O)C(=O)N1CCC(NCc2cc(F)c(F)cc2F)CC1", "fraction unbound at 5 h", 0.579),
]

====

assay: PK study in rats (intravenous and oral); type: in vivo, Male Sprague Dawley rats; conditions: male, Sprague Dawley, rat, plasma, oral 20 mg/kg, read-out: t1/2 (terminal phase half-life) (converted)

# COMPOUND, READOUT UNITS, half-life
records = [
    ("CC(C)(C)[C@H](NC(=O)[C@H](CC1CCCC1)CN(O)C=O)C(=O)N1CCC(NCc2cc(F)c(F)cc2F)CC1 [IDP-73152]", "h", 2.97),
]

====

experiment: Caco-2 cell bidirectional permeability; format: in vitro ADME; conditions: human, Caco-2, Caco-2; read-out: recovery, B to A transport
QUANTITY NAME: recovery at 2 h, 10 µM (%)

# MOLECULAR STRING, QUANTITY NAME, READOUT UNITS, RECORDED RESULT
rows = [
    ("CC(C)(C)[C@H](NC(=O)[C@H](CC1CCCC1)CN(O)C=O)C(=O)N1CCC(NCc2cc(F)c(F)cc2F)CC1", "recovery at 2 h, 10 µM", "%", 93.4),
]

====

test: Unbound fraction in plasma (rapid equilibrium dialysis), dog; assay type: in vitro ADME; conditions: dogs plasma, 0.3, 1, 3 μM, RED 5 h, read-out: fu,p

# MOLECULAR STRING, fraction unbound at 5 h
records = [
    ("CC(C)(C)[C@H](NC(=O)[C@H](CC1CCCC1)CN(O)C=O)C(=O)N1CCC(NCc2cc(F)c(F)cc2F)CC1", 0.0547),
]

====

experiment: Tissue distribution at steady state, constant-rate infusion in rats; format: in vivo; details: male, Sprague Dawley, rat, plasma and tissue homogenates, intravenous, 0.8 mg/h, from KP,ss of ten tissues, read-out: Vss calculated by Equation (10)
QUANTITY NAME: Vd (L/kg)

# COMPOUND, RECORDED RESULT
data = [
    ("CC(C)(C)[C@H](NC(=O)[C@H](CC1CCCC1)CN(O)C=O)C(=O)N1CCC(NCc2cc(F)c(F)cc2F)CC1 [IDP-73152]", 2.09),
]

====

test: Metabolic stability in liver microsomes, dog; format: in vitro ADME; settings: dog, liver microsomes, pH 7.4; dogs; read-out: CLh calculated from the CLint,mic (converted)
QUANTITY NAME: CLhep predicted at 1 μM (mL/min/kg)

# COMPOUND, QUANTITY NAME, RECORDED RESULT
data = [
    ("CC(C)(C)[C@H](NC(=O)[C@H](CC1CCCC1)CN(O)C=O)C(=O)N1CCC(NCc2cc(F)c(F)cc2F)CC1 [IDP-73152]", "CLhep predicted at 1 μM", 8.87),
]

====

assay: Blood partitioning (LC-MS/MS-based depletion method), rat; type: in vitro ADME; details: whole blood, rats blood, 0.3, 1, 3 μM, read-out: BP (blood-to-plasma concentration ratio)

# MOLECULAR STRING, blood plasma ratio at 60 min
rows = [
    ("CC(C)(C)[C@H](NC(=O)[C@H](CC1CCCC1)CN(O)C=O)C(=O)N1CCC(NCc2cc(F)c(F)cc2F)CC1", 1.56),
]

====

Experiment: Unbound fraction in plasma (rapid equilibrium dialysis), human
Assay type: in vitro ADME
Details: humans plasma, 0.3, 1, 3 μM, RED 5 h, read-out: fu,p
Method: The unbound fractions of IDP-73152 in various matrices were measured according to the manufacturer’s instructions for the rapid equilibrium dialysis (RED) device (ThermoFisher Scientific, Waltham, MA, USA). […] The IDP-73152 concentration in the buffer/sample chambers (i.e., CBuffer Chamber and CSample Chamber) was determined by an assay. […]
QUANTITY NAME: fraction unbound at 5 h

# COMPOUND, QUANTITY NAME, RECORDED RESULT
records = [
    ("CC(C)(C)[C@H](NC(=O)[C@H](CC1CCCC1)CN(O)C=O)C(=O)N1CCC(NCc2cc(F)c(F)cc2F)CC1 [IDP-73152]", "fraction unbound at 5 h", 0.0744),
]

====

assay: PK study in rats (intravenous and oral); assay type: in vivo, Male Sprague Dawley rats; settings: male, Sprague Dawley, rat, plasma, po, 20 mg/kg, oral 20 mg/kg, read-out: Tmax
QUANTITY NAME: Tmax (min)

# MOLECULAR STRING, QUANTITY NAME, RECORDED RESULT
rows = [
    ("CC(C)(C)[C@H](NC(=O)[C@H](CC1CCCC1)CN(O)C=O)C(=O)N1CCC(NCc2cc(F)c(F)cc2F)CC1", "Tmax", 40),
]

====

experiment: PK study in dogs (intravenous and oral); type: in vivo; conditions: male, beagle, dog, plasma; dogs, oral 20 mg/kg, hard gelatin capsules
QUANTITY NAME: AUC(0-inf)

# COMPOUND, QUANTITY NAME, RECORDED RESULT
records = [
    ("CC(C)(C)[C@H](NC(=O)[C@H](CC1CCCC1)CN(O)C=O)C(=O)N1CCC(NCc2cc(F)c(F)cc2F)CC1 [IDP-73152]", "AUC(0-inf)", "31600 ng·h/mL"),
]
